Data provenance is paper PMC8708751.

Listing: melting point of selected compounds

Sample answers from the record:
smilesInput: NS(=O)(=O)c1ccc(Nc2ncnc3ccc(-c4cccc(O)c4)cc23)cc1
melting point: 313.2 to 315.1 °C
//
smilesInput: NS(=O)(=O)c1ccc(Nc2ncnc3ccc(-c4cccnc4)cc23)cc1
melting point: 315.1 to 316.2 °C
//
smilesInput: NS(=O)(=O)c1cccc(Nc2ncnc3ccc(-c4cccnc4)cc23)c1
melting point: 320 to 321.5 °C
//
smilesInput: NS(=O)(=O)c1ccc(Nc2ncnc3cc(-c4ccc(CN5CCOCC5)cc4)ccc23)cc1
melting point: 228.1 to 229.8 °C
//
smilesInput: NS(=O)(=O)c1ccc(Nc2ncnc3ccc(Br)cc23)cc1
melting point: 322.2 to 324.5 °C

Continue with the compound presented below.
// recorded melting point for NS(=O)(=O)c1cccc(Nc2ncnc3cc(-c4cccc(CN5CCOCC5)c4)ccc23)c1 : 267.5 to 269 °C
